// provenance: PubChem BioAssay AID1159580

experimentDescription: chemical genetic growth profiling, strain panel (AID 1159580);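 also: tested at 20 µM; growth read once vehicle control cultures reached saturation at 30 °C; 1 = growth at the plate median or of vehicle wells; lower values mean less growth of the strain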
conditionInfo: S. cerevisiae deletion strains, growth OD, locus YNL307C, strain MCK1 (second series)
The whole screen tested about 5,500 compounds, of which about 2,000 (36%) were called active. Another 18% or so got no clear call; they are omitted. Rule as the data show it: active = normalized growth mostly below about 0.91 (no sharp cut-off); inconclusive = no clear call, values can overlap the other calls; inactive = mostly above about 0.92. The list shows a part of the results.
Mark one answer only. Choices: Yes (active), No (inactive)

Tell me the assay call for "O=C(NC(=S)Nc1cccc(C(F)(F)F)c1)c1ccc2nonc2c1" please.
No

For "CCOC(=O)/C(=N/Nc1c(Cl)cccc1Cl)c1csc(N)n1" , what call appears in the results of this test?
No

Query: recorded result category for "N#CC(C#N)=C/C=C(/Sc1ccc(F)c(Cl)c1)c1ccc(Cl)cc1" in this test
No

What call does the record list for "COc1ccc(C(=O)CSC2=NCCc3ccccc32)cc1" ?
No

What classification did "CCCc1c(C(=O)NC2Cc3ccccc3C2)cnn1-c1ccccc1" end up with in this test?
No

Continuing:
Name the outcome recorded for "COC(=O)C1=C(C)NC(C)=C(C(=O)OC)C1c1ccc(Cl)cc1Cl" in the assay.
No

----------
experimentDescription: chemical genetic growth profiling, strain panel (AID 1159580);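 also: tested at 20 µM; growth read once vehicle control cultures reached saturation at 30 °C; 1 = growth at the plate median or of vehicle wells; lower values mean less growth of the strain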
conditionInfo: S. cerevisiae deletion strains, growth OD, locus YOR144C, strain elg1
In all, about 5,500 compounds went through this assay and about 2,000 (36%) were called active. Another 18% or so got no clear call; they are omitted. Rule as the data show it: active = normalized growth mostly below about 0.91 (no sharp cut-off); inconclusive = no clear call, values can overlap the other calls; inactive = mostly above about 0.92. This is one part of the list.
I would appreciate it if you answered using one of these outcomes: class 1 (active), class 0 (inactive)

Outcome logged for CC1(C)CC2C1(O)CCC1(C)C=CC(O)C21CO (stereo not drawn) in this assay:
class 0

Continuing:
Record request — test call for C=CC(C1=CC(=O)C(OC)=CC1=O)c1ccc(OC)cc1 (stereo not drawn)
class 0

----------
experimentDescription: chemical genetic growth profiling, strain panel (AID 1159580);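 also: tested at 20 µM; growth read once vehicle control cultures reached saturation at 30 °C; 1 = growth at the plate median or of vehicle wells; lower values mean less growth of the strain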
conditionInfo: S. cerevisiae deletion strains, growth OD, locus YNL161W, strain CBK1, hits give low values
Hit rate of the full screen: of about 5,500 compounds, about 2,000 (36%) were called active. About 18% were inconclusive and are not listed. Some of the results follow.
Items are presented alongside their recorded normalized growth.
Output: the number by itself.

Please review the entries below; each comes with its answer.
Need normalized growth, item "Cn1c(CSCCOc2ccccc2)nnc1SCc1ccc(Cl)cc1Cl"
0.98

Look up normalized growth: "CC(=O)Nc1ccc(/C=C/[N+](=O)[O-])cc1"
0.973

More entries:
Item under review: "Cc1cc(Cl)ccc1NC(=S)NNC(=S)Nc1ccc(F)cc1" . Reported normalized growth?
0.973

Given "COC(=O)C1=C(C)NC(C)=C(C(=O)OC)C1c1ccc(Cl)cc1Cl" , state its recorded normalized growth.
0.987

Recorded normalized growth for "O=[N+]([O-])/C=C/c1ccsc1" , please?
0.0827

Reported normalized growth for "C=CCOc1ccc(/C=C/[N+](=O)[O-])cc1" : what is it?
0.0814

Param item = "Fc1cccc(F)c1NC(=S)Nc1cc(C(F)(F)F)cc(C(F)(F)F)c1" ; retrieve measured normalized growth.
0.98

// query normalized growth value for entry "O=C(c1ccccc1)c1cc(Cl)ccc1NC(=S)Nc1ccc(F)cc1"
0.992

Fill in the blank: the reported normalized growth of OC(CNCc1ccc(Cl)cc1)CO/N=C\C1=C(Cl)c2cc(Cl)ccc2OC1 (stereo not drawn) is ____.
0.983

Give the measured normalized growth of "FC(F)(F)c1cccc(NNC(=S)Nc2ccccc2)c1" .
0.997

Name the reported normalized growth value associated with the compound "CSc1cc(-c2ccncc2)nc(-c2cccs2)c1"
0.952

Quick check: normalized growth of "N#CCC(=O)NNC(=S)Nc1ccc(Cl)c(Cl)c1" ?
0.981

Dear colleague, I am looking for the recorded normalized growth of the following compound: "O=C(NC(=S)Nc1cccc(C(F)(F)F)c1)c1ccc2nonc2c1"
0.954
